tested on: TNF-α release, human peripheral blood mononuclear cells; assay: Cell Based Assay for TNF-α Release (LPS stimulation of Human PBMNC's); conditions: PBMC, LPS 1 μg/ml, TNF-α by ELISA, comparator, 4 repetitions
pIC50: −log10 of the molar value.
measured property: pIC50

Please give the measured pIC50 for this molecule: COc1ccc(C2CNC(=O)C2)cc1OC1CCCC1 (stereo not shown)
~6.62
